# assay.method.text: chemical genetic growth profiling, strain panel (AID 1159580);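 note: tested at 20 µM; growth read once vehicle control cultures reached saturation at 30 °C; lower values mean less growth of the strain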
# experimental.conditions: S. cerevisiae deletion strains, growth OD, locus YLR027C, strain aat2
Out of some 5,500 compounds screened, about 2,000 (36%) were called active. Inconclusive results (about 18%) are left out. Cut-off read from the data, not from the text of the source: active = normalized growth mostly below about 0.91 (no sharp cut-off); inconclusive = no clear call, values can overlap the other calls; inactive = mostly above about 0.92. This is one part of the list.
Classes used: active, inactive

compound | class
CC(=O)OC1CCC2(C)C(=CC=C3C2CCC2(C)C3CCC2C(C)/C=C/C(C)C(C)C)C1(C)C (configuration not stated) | inactive
CO/N=C(\C(=O)NC1C(=O)N2C(C(=O)O)=C(COC(N)=O)CSC12)c1ccco1 (configuration not stated) | inactive
CC(=O)OCC(OC(C)=O)C(OC(C)=O)C(OC(C)=O)C(OC(C)=O)C(COC(C)=O)OC(C)=O (configuration not stated) | inactive
CC(=O)OCC[C@H](C)CCC=C(C)C | inactive
C[C@H]1COC2=C1C(=O)C(=O)c1c2ccc2c1CCCC2(C)C | active
Cc1ccc(Cl)c(Nc2ccccc2C(=O)O)c1Cl | active
C#CCCCCCCCCCCCC(=O)CC(O)COC(C)=O (configuration not stated) | inactive
O=C1NC(=O)C(=O)C(=O)N1 | inactive
CCCCCCCCCCCCCCCC(=O)OC1C(SC)OC(C(NC(=O)C2CC(CCC)CN2C)C(C)Cl)C(O)C1O (configuration not stated) | inactive
C#CCCCCCCCCCCCC(O)CC(O)COC(C)=O (configuration not stated) | active
CC(C)C(C)/C=C/C(C)C1CCC2C3=CC=C4CC(O)CCC4(C)C3CCC21C (configuration not stated) | inactive
NC(N)=NS(=O)(=O)c1ccc(N)cc1 | inactive
CC(C)(Oc1ccc(C2CC2(Cl)Cl)cc1)C(=O)O (configuration not stated) | inactive
Cc1coc2c1C(=O)C(=O)c1c-2ccc2c1CCCC2(C)C | active
Cc1c(Cl)cccc1Nc1ccccc1C(=O)O | active
CO/N=C(\C(=O)N[C@@H]1C(=O)N2C(C(=O)O)=C(COC(C)=O)CS[C@H]12)c1csc(N)n1 | inactive
C=C1C(=O)O[C@@H]2C[C@@]3(C)CCC[C@H](C)C3=C[C@H]12 | active

Reference for the values: PubChem BioAssay AID1159580
